- System: U251 CNS
- test: NCI-60 one-dose screen, 48 h
- measurement.context: 10 µM unless noted
About 83,000 compounds went through this panel and 20% of them were active in at least one assay; those are over-represented in the sample as a whole. Activity calls are given as the source filed them. The calls were made as follows: active = growth percent below 10; inactive = the rest.
Return exactly one item of label 1 (active), label 0 (inactive)

Use the examples below as a reference point.
COc1ccc(/C=N/OCC(O)CN2CCC(O)CC2)cc1OC1CCCC1 (stereo not given)	label 0
COC(=O)c1c2c(c(C)[n+]([O-])c1C)C(=O)C=C(NCc1cccc(OC)c1)C2=O	label 1
O=C1/C(=C/c2ccccc2F)CNC/C1=C\c1ccccc1F	label 1
O=C(COc1cccc(/C=C2\COc3ccccc3C2=O)c1)c1ccccc1	label 0
CN(C)c1ccc(/C=C(\C#N)c2cc3ccccc3n2C)cc1	label 0

Asked: Hey, what did the test say about COc1cc(/C=C/c2cc(/C=C/c3ccc(O)c(OC)c3)n(-c3ccccc3)n2)ccc1O ?
Given back: label 1

Asked: Would you mind telling me which call this test gave CCOC(=O)c1cnn(CC(O)c2ccc(F)cc2)c1NC(=O)Nc1ccccc1F (stereo not given) ?
Given back: label 0

Asked: Hi, do you know how COc1cc(/C=C/C(=O)C(=Cc2ccc(F)c(F)c2)C(=O)/C=C/c2ccc(O)c(OC)c2)ccc1O came out in this test?
Given back: label 0

Asked: What was the test verdict on COc1ccc(OC)c(C2C(C#N)=C(N)Oc3cc(O)ccc32)c1 (stereo not given) ?
Given back: label 0

Asked: Just curious, what result did Cc1ccc(S(=O)(=O)N2C/C(=C\c3cc(F)cc(F)c3)C(=O)/C(=C/c3cc(F)cc(F)c3)C2)cc1 get here?
Given back: label 1

* * *

- Test system: HOP-62 NSCLC
- test: NCI-60 one-dose screen, 48 h
- measurement.context: 10 µM unless noted
- Description: Growth inhibition of the HOP-62 human Non-Small Cell Lung tumor cell line is measured as a screen for anti-cancer activity. Cells are grown in 96 well plates and exposed to the test compound for 48 hours. Compounds are tested at a single concentration, which is 10^-5 M for most compounds. The reported endpoint is percent growth (GI% or GIPRCNT), where numbers from 0 - 100% represent growth inhibition, and numbers from -100% - 0 represent cell death. […]
The panel holds about 83,000 compounds, 20% with a hit somewhere; the sample as a whole holds those more often. Active and inactive are the calls of the source. Rule for the calls: active = growth percent below 10; inactive = the rest.
// allowed return values: active, inactive

Consider the worked cases shown below.
O=C1CN2CCC1C/C2=C\c1ccnc2c(Cl)cccc12 (centres undefined)	inactive
CC(=O)Nc1ccccc1-c1n[nH]c(=O)[nH]c1=O	inactive
Cc1ccc(S(=O)(=O)N2C/C(=C\c3cc(F)cc(F)c3)C(=O)/C(=C/c3cc(F)cc(F)c3)C2)cc1	active

Asked: What was the test verdict on Cn1c2ccccc2c2nn(C(=O)c3ccccc3)c(=O)nc21 ?
Given back: inactive

Asked: Which result was noted for this compound in the test: COc1ccc(Sc2ccc3[nH]c(=O)nc(N)c3c2)cc1
Given back: inactive

Asked: // param item: FC(F)(F)c1cc(CNc2nc(Cl)ncc2Br)cc(C(F)(F)F)c1 ; yields the recorded call
Given back: inactive

Asked: Short answer needed: outcome of this test for CC(C)(C)[Si](C)(C)OC1[C@@H](COC(N)=O)O[C@@H](n2cnc3c(N)ncnc32)[C@H]1O[Si](C)(C)C(C)(C)C (some centres undefined) ?
Given back: inactive

Asked: Each compound tested received a call. Report the one for CCC(C)[C@H]1O[C@]2(CC[C@@H]1C)C[C@@H]1C[C@@H](C/C=C(\C)[C@@H](OC3C[C@H](OC)C(O[C@H]4C[C@H](OC)[C@@H](O)[C@H](C)O4)[C@H](C)O3)[C@@H](C)/C=C/C=C3\CO[C@@H]4[C@H](O)C(C)=C[C@@H](C(=O)O1)[C@]34O)O2 (some centres undefined) .
Given back: inactive

Asked: What did this assay record as the result for CCN1C(=O)C2(Nc3ccccc3S2)c2cc(C)ccc21 (centres undefined) ?
Given back: inactive

Asked: Which result was noted for this compound in the test: Cc1ccc(-c2c3c(N)c4c(nc3nc3c2c(C)nn3-c2ccccc2)CCCC4)cc1
Given back: inactive
